read-out: JUN Transcription Factor, JUN (gene 3725); test: LTEA_HepaRG_JUN: Life Technologies and Expression Analysis (LTEA) Assay for JUN Transcription Factor using HepaRG (AID 2283513); conditions: mRNA level, 48 h; actives raise or lower the signal
The source made the active and inactive calls. How the source made its calls: active means hit-call score of the fitted dose curve at least 0.9, where 1 is the maximum; inactive means score below 0.9.
Can you answer with just one of these options? YES for active, NO for inactive

Field: example entries. Status: answers known.
>>> assignedclass("COP(=O)(OC)OC=C(Cl)Cl")
"NO"
>>> assignedclass("CCC(C)(C)C(=O)OC1=C(c2ccc(Cl)cc2Cl)C(=O)OC12CCCCC2")
"NO"
>>> assignedclass("CCCN(CCOc1c(Cl)cc(Cl)cc1Cl)C(=O)n1ccnc1")
"YES"
>>> assignedclass("O=C(NC(=O)c1c(F)cccc1F)Nc1ccc(OC(F)(F)C(F)OC(F)(F)F)c(Cl)c1 (configuration not stated)")
"NO"
>>> assignedclass("O=S1OCC2C(CO1)C1(Cl)C(Cl)=C(Cl)C2(Cl)C1(Cl)Cl (configuration not stated)")
"NO"
>>> assignedclass("O=C1c2ccccc2C(=O)N1SC(Cl)(Cl)Cl")
"NO"

Let us examine a further case.
## Input Write down the call the test reported for this compound. Item: N#CN
## Output NO

---

read-out: Insulin Like Growth Factor 1 (IGF1), IGF1 (gene 3479); assay: LTEA_HepaRG_IGF1: Life Technologies and Expression Analysis (LTEA) Assay for Insulin Like Growth Factor 1 (IGF1) using HepaRG (AID 2283506); settings: mRNA level, 48 h; actives raise or lower the signal
Active and inactive are the calls of the source. The calls were made as follows: active = hit-call score of the fitted dose curve at least 0.9, where 1 is the maximum; inactive = score below 0.9.
Please reply with one of these outcomes: class 1 for active, class 0 for inactive

Some solved cases for reference:
>>> assignedclass("CCCN(CCC)c1c([N+](=O)[O-])cc(C(F)(F)F)cc1[N+](=O)[O-]")
"class 0"
>>> assignedclass("CC[C@H](C)[C@H]1O[C@]2(C=C[C@@H]1C)C[C@@H]1C[C@@H](C/C=C(\\C)[C@@H](O[C@H]3C[C@H](OC)[C@@H](O[C@H]4C[C@H](OC)[C@@H](O)[C@H](C)O4)[C@H](C)O3)[C@@H](C)/C=C/C=C3\\CO[C@@H]4[C@H](O)C(C)=C[C@@H](C(=O)O1)[C@]34O)O2 (tested in a mixture with another compound)")
"class 1"
>>> assignedclass("O=[N+]([O-])c1c(Cl)c(Cl)c(Cl)c(Cl)c1Cl")
"class 1"
>>> assignedclass("N#CN")
"class 0"

## Input Per the assay record, what outcome was assigned to C#CCN1C(=O)COc2cc(F)c(N3C(=O)C4=C(CCCC4)C3=O)cc21 ?
## Output class 1

---

read-out: xenobiotic metabolism (CYP1A2), CYP1A2 (gene 1544); assay: CLD_CYP1A2_48hr: CellzDirect (CLD) Gene Expression Assay for xenobiotic metabolism (CYP1A2) at 48 hours (AID 2283703)
Records with an inconclusive call do not appear. Activity calls are given as the source filed them. How the source made its calls: active means hit-call score of the fitted dose curve at least 0.9, where 1 is the maximum; inconclusive means response in the unintended direction; inactive means score below 0.9.
propertyLabel: AC50

>>> measvalue("COP(=S)(OC)Oc1ccc(SC)c(C)c1")
"6.69 µM (active)"

Here is the next item to consider.
## Input AC50 for Clc1ccccc1-c1nnc(-c2ccccc2Cl)nn1 ?
## Output 20 µM (active)

---

read-out: Glutamate-cysteine ligase catalytic (GCLC), GCLC (gene 2729); experiment: LTEA_HepaRG_GCLC: Life Technologies and Expression Analysis (LTEA) Assay for Glutamate-cysteine ligase catalytic (GCLC) using HepaRG (AID 2283498); settings: mRNA level, 48 h; actives raise or lower the signal
Active and inactive are the calls of the source. Rule for the calls: active = hit-call score of the fitted dose curve at least 0.9, where 1 is the maximum; inactive = score below 0.9.
Choose one outcome from this list and give only that: active, inactive

Reference set, count: 3
>>> assignedclass("COP(=S)(OC)Oc1ccc([N+](=O)[O-])cc1")
"inactive"
>>> assignedclass("CC(C)N(C(=O)COc1nnc(C(F)(F)F)s1)c1ccc(F)cc1")
"inactive"
>>> assignedclass("CN1CSC(=S)N(C)C1")
"inactive"

## Input Per the records of this test, what outcome belongs to N#Cc1c(Cl)c(Cl)c(Cl)c(C#N)c1Cl ?
## Output inactive

## Input For C#CCN1C(=O)COc2cc(F)c(N3C(=O)C4=C(CCCC4)C3=O)cc21 , which call appears in the assay record?
## Output inactive

## Input For this molecule, state the assay outcome: CC[C@H](C)[C@H]1O[C@]2(C=C[C@@H]1C)C[C@@H]1C[C@@H](C/C=C(\C)[C@@H](O[C@H]3C[C@H](OC)[C@@H](O[C@H]4C[C@H](OC)[C@@H](O)[C@H](C)O4)[C@H](C)O3)[C@@H](C)/C=C/C=C3\CO[C@@H]4[C@H](O)C(C)=C[C@@H](C(=O)O1)[C@]34O)O2 (tested in a mixture with another compound)
## Output active

## Input Could you kindly confirm the outcome this assay logged for CCC(C)(NC(=O)c1cc(Cl)c(C)c(Cl)c1)C(=O)CCl (stereo unspecified) ?
## Output inactive

## Input What is the recorded call for this molecule in the test? Oc1ccc(Cl)cc1Cc1ccccc1
## Output inactive

## Input Query: recorded result category for CNC(=O)CSP(=S)(OC)OC in this test
## Output inactive

## Input Hi, sorry to bother you, what did the test record for Oc1cc(Cl)ccc1Oc1ccc(Cl)cc1Cl ?
## Output inactive

## Input Test call for this molecule, please: O=[N+]([O-])/N=C1\NCCN1Cc1ccc(Cl)nc1
## Output active

## Input Which result was noted for this molecule in the test: CNC(=O)Oc1ccccc1OC(C)C
## Output inactive

## Input Hello, I am checking results. What call was entered for O=[N+]([O-])c1c(Cl)c(Cl)c(Cl)c(Cl)c1Cl ?
## Output inactive

The reported numbers originate from PubChem BioAssay (EPA / NIEHS).
